The entries below come with measured IC25 values attached.
Target: Na+-dependent bile acid transport system (Oryctolagus cuniculus)
Construct: brush-border membrane vesicles from the ileum of rabbits; from tissue; host or cells: terminal ileum of male New Zealand rabbits, brush-border membrane vesicles
Test: Inhibition of Na+-dependent [3H]taurocholate absorption into brush-border membrane vesicles of the ileum
Type: biochemical, rabbit
Method: The preparation of brush-border membrane vesicles from the intestinal cells of the small intestine was carried out using the so-called Mg^2+ precipitation method. […] The terminal 3/10 of the small intestine (measured in the oral-rectal direction, i.e. the terminal ileum, which contains the active Na^+ -dependent bile acid transport system) were used for preparation of the brush-border membrane vesicles. […]
The reply should contain only the number, in µM.

Solved entries:
[
  {
    "smilesInput": "CC(C)c1nc(-c2ccccc2)cc(-c2ccc(F)cc2)c1/C=C/[C@@H](O)C[C@@H](O)CC(=O)NCCO[C@H]1CC[C@@]2(C)[C@@H](C1)C[C@@H](O)[C@@H]1[C@@H]2C[C@H](O)[C@]2(C)[C@@H]([C@H](C)CCC(=O)O)CC[C@@H]12",
    "resultUnits": "µM",
    "IC25": 18
  },
  {
    "smilesInput": "CC(C)c1cc(-c2ccc(F)cc2)c(OC[C@@H](O)C[C@@H](O)CC(=O)NCCO[C@H]2CC[C@@]3(C)[C@@H](C2)C[C@@H](O)[C@@H]2[C@@H]3C[C@H](O)[C@]3(C)[C@@H]([C@H](C)CCC(=O)NCCS(=O)(=O)O)CC[C@@H]23)c(C(C)C)c1",
    "resultUnits": "µM",
    "IC25": 10
  }
]

Entry `CC(C)c1cc(Sc2ccc(F)cc2)cc(-c2ccc(F)cc2)c1OC[C@@H](O)C[C@@H](O)CC(=O)NCCO[C@H]1CC[C@@]2(C)[C@@H](C1)C[C@@H](O)[C@@H]1[C@@H]2C[C@H](O)[C@]2(C)[C@@H]([C@H](C)CCC(=O)O)CC[C@@H]12` ; IC25 = 3.2

----------
Molecular target: Na+-dependent bile acid transport system (Oryctolagus cuniculus)
Construct: brush-border membrane vesicles from the ileum of rabbits; from tissue; host or cells: terminal ileum of male New Zealand rabbits, brush-border membrane vesicles
Assay: Inhibition of Na+-dependent [3H]taurocholate absorption into brush-border membrane vesicles of the ileum
Format: biochemical, rabbit
metric: IC50 (µM)
Could you give me the number in µM? Just the number is fine.

Note to self: IC50 of C[C@H](CCC(=O)NCC(=O)O)[C@H]1CC[C@H]2[C@@H]3[C@H](O)C[C@@H]4C[C@@H](OCCNC(=O)CCCc5ccc(N(CCCl)CCCl)cc5)CC[C@]4(C)[C@H]3C[C@H](O)[C@]12C [Example 68] with Na+-dependent bile acid transport system (Oryctolagus cuniculus) was 89

// assay Na+-dependent bile acid transport system (Oryctolagus cuniculus), entry C[C@H](CCC(=O)O)[C@H]1CC[C@H]2[C@@H]3[C@H](O)C[C@@H]4C[C@@H](OCCNC(=O)CCCc5ccc(N(CCCl)CCCl)cc5)CC[C@]4(C)[C@H]3C[C@H](O)[C@]12C [Example 66] , IC50 value = 86.5

Here C[C@H](CCC(=O)NCCS(=O)(=O)O)[C@H]1CC[C@H]2[C@@H]3[C@H](O)C[C@@H]4C[C@@H](OCCNC(=O)CCCc5ccc(N(CCCl)CCCl)cc5)CC[C@]4(C)[C@H]3C[C@H](O)[C@]12C [Example 67] was tested on Na+-dependent bile acid transport system (Oryctolagus cuniculus), and its IC50 came to 47.5

----------
Target: Na+-dependent bile acid transport system (Oryctolagus cuniculus, UniProt Q28727)
Construct: brush-border membrane vesicles from the ileum of rabbits; from tissue; host or cells: terminal ileum of male New Zealand rabbits, brush-border membrane vesicles
Sequence (Q28727 1-347): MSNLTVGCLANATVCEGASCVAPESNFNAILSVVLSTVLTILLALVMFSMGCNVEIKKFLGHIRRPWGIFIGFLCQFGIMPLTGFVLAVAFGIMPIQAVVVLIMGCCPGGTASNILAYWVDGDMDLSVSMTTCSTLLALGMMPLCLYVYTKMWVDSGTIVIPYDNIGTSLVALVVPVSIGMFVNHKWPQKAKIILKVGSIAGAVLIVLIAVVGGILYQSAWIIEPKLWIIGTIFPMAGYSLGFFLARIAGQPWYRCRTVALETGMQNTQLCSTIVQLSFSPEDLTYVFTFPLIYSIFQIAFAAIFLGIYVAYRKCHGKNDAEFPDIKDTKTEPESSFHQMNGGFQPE
Experiment: Inhibition of Na+-dependent [3H]taurocholate absorption into brush-border membrane vesicles of the ileum
Assay type: biochemical, rabbit
Counter-ions that a name gives are not always drawn.
metric: IC75 (µM)
Quick reminder: number only, in µM, skip the unit.

# example entries with known answers
[
  {
    "compound": "CC(C)c1nc(-c2ccccc2)cc(-c2ccc(F)cc2)c1/C=C/[C@@H](O)C[C@@H](O)CC(=O)NCCCO[C@@H]1CC[C@@]2(C)[C@@H](C1)C[C@@H](O)[C@@H]1[C@@H]2C[C@H](O)[C@]2(C)[C@@H]([C@H](C)CCC(=O)O)CC[C@@H]12",
    "IC75 / µM": 70
  },
  {
    "compound": "Cc1cc(C(=C(/C=C/[C@@H](O)C[C@@H](O)CC(=O)NCCO[C@H]2CC[C@@]3(C)[C@@H](C2)C[C@@H](O)[C@@H]2[C@@H]3C[C@H](O)[C@]3(C)[C@@H]([C@H](C)CCC(=O)O)CC[C@@H]23)C(C)C)c2ccc(F)c(C)c2)ccc1F",
    "IC75 / µM": 27
  },
  {
    "compound": "CC(C)c1nc(-c2ccccc2)cc(-c2ccc(F)cc2)c1/C=C/[C@@H]1C[C@@H](O)CC(=O)O1 [Example 125, reference compound]",
    "IC75 / µM": 104
  },
  {
    "compound": "CC(C)c1cc(-c2ccc(F)cc2)c(OC[C@@H](O)C[C@@H](O)CC(=O)NCCO[C@H]2CC[C@@]3(C)[C@@H](C2)C[C@@H](O)[C@@H]2[C@@H]3C[C@H](O)[C@]3(C)[C@@H]([C@H](C)CCC(=O)NCC(=O)O)CC[C@@H]23)c(C(C)C)c1",
    "IC75 / µM": 68
  },
  {
    "compound": "CC(C)c1cc(-c2ccc(F)cc2)c(OC[C@@H](O)C[C@@H](O)CC(=O)NCCCO[C@H]2CC[C@@]3(C)[C@@H](C2)C[C@@H](O)[C@@H]2[C@@H]3C[C@H](O)[C@]3(C)[C@@H]([C@H](C)CCC(=O)O)CC[C@@H]23)c(C(C)C)c1 [Example 82 (Na salt)]",
    "IC75 / µM": 80
  }
]

// `CC(C)c1nc(-c2ccccc2)cc(-c2ccc(F)cc2)c1/C=C/[C@@H](O)C[C@@H](O)CC(=O)NCCCO[C@H]1CC[C@@]2(C)[C@@H](C1)C[C@@H](O)[C@@H]1[C@@H]2C[C@H](O)[C@]2(C)[C@@H]([C@H](C)CCC(=O)O)CC[C@@H]12` : IC75 value = 87

# IC75 (compound: `CC(C)c1cc(Sc2ccc(F)cc2)cc(-c2ccc(F)cc2)c1OC[C@@H](O)C[C@@H](O)CC(=O)NCCCO[C@H]1CC[C@@]2(C)[C@@H](C1)C[C@@H](O)[C@@H]1[C@@H]2C[C@H](O)[C@]2(C)[C@@H]([C@H](C)CCC(=O)O)CC[C@@H]12` ) is 24

IC75 measured on `COC(=O)CC[C@@H](C)[C@H]1CC[C@H]2[C@@H]3[C@H](O)C[C@@H]4C[C@@H](OCCNC(=O)[C@@H](C)NC(=O)[C@@H](C)N)CC[C@]4(C)[C@H]3C[C@H](O)[C@]12C` = 178

So, `CC(C)c1nc(-c2ccccc2)cc(-c2ccc(F)cc2)c1/C=C/[C@@H](O)C[C@@H](O)CC(=O)NCCO[C@H]1CC[C@@]2(C)[C@@H](C1)C[C@@H](O)[C@@H]1[C@@H]2C[C@H](O)[C@]2(C)[C@@H]([C@H](C)CCC(=O)O)CC[C@@H]12` ? Its IC75 was 64

----------
Target: Na+-dependent bile acid transport system (Oryctolagus cuniculus)
Construct: brush-border membrane vesicles from the ileum of rabbits; from tissue; host or cells: terminal ileum of male New Zealand rabbits, brush-border membrane vesicles
Assay: Inhibition of Na+-dependent [3H]taurocholate absorption into brush-border membrane vesicles of the ileum
Assay type: biochemical, rabbit
Conditions: read-out: IC50
metric: IC50 (µM)
Write the answer as a number in µM, unit excluded.

Example molecules with recorded IC50:
[
  {
    "smilesInput": "CC(C)c1cc(Sc2ccc(F)cc2)cc(-c2ccc(F)cc2)c1OC[C@@H](O)C[C@@H](O)CC(=O)NCCO[C@H]1CC[C@@]2(C)[C@@H](C1)C[C@@H](O)[C@@H]1[C@@H]2C[C@H](O)[C@]2(C)[C@@H]([C@H](C)CCC(=O)O)CC[C@@H]12",
    "targetEntity": "Na+-dependent bile acid transport system (Oryctolagus cuniculus)",
    "IC50, µM": 8
  },
  {
    "smilesInput": "COC(=O)CC[C@@H](C)[C@H]1CC[C@H]2[C@@H]3[C@H](O)C[C@@H]4C[C@@H](OCCNC(=O)[C@@H](C)NC(=O)[C@@H](C)N)CC[C@]4(C)[C@H]3C[C@H](O)[C@]12C",
    "targetEntity": "Na+-dependent bile acid transport system (Oryctolagus cuniculus)",
    "IC50, µM": 87
  },
  {
    "smilesInput": "CC(C)c1cc(-c2ccc(F)cc2)c(OC[C@@H](O)C[C@@H](O)CC(=O)NCCO[C@H]2CC[C@@]3(C)[C@@H](C2)C[C@@H](O)[C@@H]2[C@@H]3C[C@H](O)[C@]3(C)[C@@H]([C@H](C)CCC(=O)NCC(=O)O)CC[C@@H]23)c(C(C)C)c1",
    "targetEntity": "Na+-dependent bile acid transport system (Oryctolagus cuniculus)",
    "IC50, µM": 40
  }
]

# IC50 measured on Na+-dependent bile acid transport system (Oryctolagus cuniculus) for item `CC(C)c1nc(-c2ccccc2)cc(-c2ccc(F)cc2)c1/C=C/[C@@H](O)C[C@@H](O)CC(=O)NCCCO[C@H]1CC[C@@]2(C)[C@@H](C1)C[C@@H](O)[C@@H]1[C@@H]2C[C@H](O)[C@]2(C)[C@@H]([C@H](C)CCC(=O)O)CC[C@@H]12` = 62
